Experiment: Solubility in organic solvents
Format: physicochemical
Conditions: organic solvent or mixture, thermodynamic from solid; CH2Cl2:MeOH 2:1; Table 1; read-out: CH2Cl2:MeOH 2:1 solubility
Consider the following molecules and their measured solubility readings.
experimentalReadout: solubility

molecule="Cc1cc(=O)[nH]c2c1C(=O)c1c(C)cc(=O)n(CCC(C)(C)C)c1C2=O [Compound 9-251]" observedresult="120 mM"
molecule="CCn1c2c(c(C)cc1=O)C(=O)c1c(C)cc(=O)[nH]c1C2=O [Compound 109]" observedresult="19 mM"
molecule="CCCn1c2c(c(C)cc1=O)C(=O)c1c(C)cc(=O)[nH]c1C2=O [Compound 10-41]" observedresult="32 mM"
molecule="CCc1cc(=O)[nH]c2c1C(=O)c1c(C)cc(=O)n(C)c1C2=O [Compound 4-11]" observedresult="35 mM"

* * *

Assay: pKa, log P and log D of 4-31 measured by Absorption Systems
Type: physicochemical
Settings: pH 4.0; octanol/0.15 M KCl
experimentalReadout: logD

samplesmiles=Cc1cc(=O)[nH]c2c1C(=O)c1c(C)cc(=O)n(CC(C)C)c1C2=O experimentalreadout=logD observedresult=1.78

* * *

Experiment: Solubility in 20% HPβCD solution (pH modulation protocol)
Format: physicochemical
Details: 20% HPβCD in pH 7.4 PBS, pH 7.4, aqueous with cosolvent or surfactant or cyclodextrin, thermodynamic from solid; 20% HPβCD; Table 4.3
# solubility >= 5 mM gives true (1), anything below gives false (0)

samplesmiles=CCn1c2c(c(C)cc1=O)C(=O)c1c(C)cc(=O)[nH]c1C2=O classlabel="true (1)"
samplesmiles=Cc1cc(=O)[nH]c2c1C(=O)c1c(C)cc(=O)n(C(C)C)c1C2=O classlabel="false (0)"
samplesmiles=CCCCCCCn1c2c(c(C)cc1=O)C(=O)c1c(C)cc(=O)[nH]c1C2=O classlabel="false (0)"
samplesmiles=CCCn1c2c(c(C)cc1=O)C(=O)c1c(C)cc(=O)[nH]c1C2=O classlabel="true (1)"
samplesmiles=CCc1cc(=O)n(C)c2c1C(=O)c1c(C)cc(=O)[nH]c1C2=O classlabel="false (0)"
samplesmiles=Cc1cc(=O)[nH]c2c1C(=O)c1c(C)cc(=O)n(CCC(C)C)c1C2=O classlabel="false (0)"

* * *

Experiment: Solubility in 20% HPβCD solution (pH modulation protocol)
Type: physicochemical
Conditions: 20% HPβCD in pH 7.4 PBS, pH 7.4, aqueous with cosolvent or surfactant or cyclodextrin, thermodynamic from solid; 20% HPβCD; Table 4.3
Method: The protocol for formulating DNQ compounds in HPβCD is as follows: the DNQ compound is slurried in a 20% solution of HPβCD in pH 7.4 PBS and the pH is then increased by the addition of 10 M NaOH to induce dissolution of the DNQ compound. The pH is returned to pH 7.5-8.0 by the careful addition of 1 M HCl. A 3.3 mM solution of the DNQ compound can be made by this method which is stable at least 24 hours. This represents a 30-fold increase in solubility of DNQ over PBS alone. […]
experimentalReadout: solubility

compound="Cc1cc(=O)[nH]c2c1C(=O)c1c(C)cc(=O)n(C)c1C2=O [DNQ, Deoxynyboquinone, reference compound]" observedresult="3.3 mM"
compound="CCCCn1c2c(c(C)cc1=O)C(=O)c1c(C)cc(=O)[nH]c1C2=O [Compound 4-22]" observedresult="4 mM"
compound="CCCCCn1c2c(c(C)cc1=O)C(=O)c1c(C)cc(=O)[nH]c1C2=O [Compound 9-255]" observedresult="5 mM"
compound="Cc1cc(=O)[nH]c2c1C(=O)c1c(C)cc(=O)n(CC3CC3)c1C2=O [Compound 4-37]" observedresult="4.3 mM"
compound="Cc1cc(=O)[nH]c2c1C(=O)c1c(C)cc(=O)n(CCC(C)(C)C)c1C2=O [Compound 9-251]" observedresult="19 mM"
compound="Cc1cc(=O)[nH]c2c1C(=O)c1c(C)cc(=O)n(CC(C)C)c1C2=O [Compound 87]" observedresult="13 mM"
compound="Cc1cc(=O)[nH]c2c1C(=O)c1c(C)cc(=O)n(CC(C)(C)C)c1C2=O [Compound 9-253]" observedresult="9.4 mM"
compound="CCCCCCn1c2c(c(C)cc1=O)C(=O)c1c(C)cc(=O)[nH]c1C2=O [Compound 9-257]" observedresult="6 mM"
